test: Induction of NO release in phosphate buffer pH 7.4 containing 5 mM L-cysteine assessed as nitrite level at 100 uM after 60 mins by Griess assay; type: physicochemical; details: pH 7.4, 1 h
MEASURED ENDPOINT: Activity (%)

{"columns": ["COMPOUND SMILES", "Activity [%]"],
 "data": [
  ["COc1ccc(-c2noc(NC3CCCCC3)n2)cc1", 14]
]}

[A] CC(=O)N(c1nc(Cc2ccc(Cl)cc2)no1)C1CCCCC1
[B] CC(=O)N(c1nc(-c2ccc([N+](=O)[O-])cc2)no1)C1CCCCC1
Exam item: Input pair: A , B . Output: entry with lower Activity. Provide the label of your selected option as the answer.
Marked response: B
(B: 8%, A: 12%)
